assay-name: folding enthalpy; higher = less favourable; fluorescence melt of hairpins on a sequencing array, two-state fit
measurement-parameters: sodium 0.088 M

sequence-chain	folding enthalpy / kcal/mol
GCCTCGACGAAAGTCGGC (((..(((....))))))	-6.95
GGCTCTACGAAAGTAGCC (((..(((....))))))	-17.1
CTCCGGAAACGGAG (((((....)))))	-24
GATCCACATTTGGATC ((((((....))))))	-36.8
GGCAGCGAAAGCTAGGCC ((((((....)))..)))	-28.6
CAACGGAAACGTTG (((((....)))))	-25.9
GAAAGCGAAAGCTCATTC ((((((....)))..)))	-8.68
GAGCTGGGAAACCAGCCC (.(((((....))))).)	-11.4
AGGCTGAAAAGCCT (((((....)))))	-16.9
GATCGCCGTCGCGATC ((((((....))))))	-36.5
GGAGACGAAAGTCTCTCC ((((((....)))..)))	-9.83
GATCGGTAGCCGATC ((((((...))))))	-42.2
